Origin of measurements: patent US20250289813A1

# SUBJECT OF TEST: CDK4/cyclin D1 (Homo sapiens (Human), UniProt P11802)
# Sequence (P11802 whole entry): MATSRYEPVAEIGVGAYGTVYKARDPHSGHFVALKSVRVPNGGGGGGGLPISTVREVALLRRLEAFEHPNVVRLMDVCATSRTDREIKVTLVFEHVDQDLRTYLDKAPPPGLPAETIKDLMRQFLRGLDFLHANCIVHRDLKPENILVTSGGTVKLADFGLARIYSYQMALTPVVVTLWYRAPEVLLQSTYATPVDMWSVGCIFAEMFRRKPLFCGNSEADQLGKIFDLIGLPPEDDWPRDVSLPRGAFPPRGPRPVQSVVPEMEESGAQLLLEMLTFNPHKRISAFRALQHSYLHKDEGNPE
# Sequence (P24385 whole entry partner): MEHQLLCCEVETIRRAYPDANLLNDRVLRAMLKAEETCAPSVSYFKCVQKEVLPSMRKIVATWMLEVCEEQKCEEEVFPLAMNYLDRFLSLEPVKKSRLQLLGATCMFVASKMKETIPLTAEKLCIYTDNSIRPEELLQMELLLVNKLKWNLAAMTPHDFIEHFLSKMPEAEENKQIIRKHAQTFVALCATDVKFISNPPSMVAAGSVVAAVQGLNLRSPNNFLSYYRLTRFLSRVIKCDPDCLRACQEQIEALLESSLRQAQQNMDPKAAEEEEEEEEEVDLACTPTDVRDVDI
# MEASUREMENT NOTES: CDK4 Caliper Mobility Shift assay
# Description: A Caliper Mobility Shift assay was used to determine the inhibitory activities of a compound against CDK4/cyclin D1 and CDK6/cyclin D1 in their respective kinase buffers (CDK4: 20 mM HEPES, pH 7.5, and 0.01% Triton X-100; CDK6: 50 mM HEPES, pH 7.5, and 0.0015% BRIJ-35). The CDK4/cyclin D1 and CDK6/cyclin D1 were obtained from PROQINASE and CARNA, respectively. A FAM-labeled peptide was obtained from GL. […]
MEASURED PARAMETER: IC50

- COMPOUND: "CC(=O)c1c(C)c2cnc(Nc3ccc(N4CCN(S(=O)(=O)NC(=O)[C@H]5CCCN5)CC4)cn3)nc2n(C2CCCC2)c1=O [Compound A33]"
  SUBJECT OF TEST: "CDK4/cyclin D1 (Homo sapiens (Human), UniProt P11802)"
  IC50: "≤ 200 nM"
- COMPOUND: "CC(=O)c1c(C)c2cnc(Nc3ccc(N4CCN(S(=O)(=O)NC(=O)OCCNC(=O)CN)CC4)cn3)nc2n(C2CCCC2)c1=O [Compound A20]"
  SUBJECT OF TEST: "CDK4/cyclin D1 (Homo sapiens (Human), UniProt P11802)"
  IC50: "≤ 200 nM"
- COMPOUND: "COC(=O)NS(=O)(=O)N1CCN(c2ccc(Nc3ncc4c(C)c(C(C)=O)c(=O)n(C5CCCC5)c4n3)nc2)CC1 [Compound A26]"
  SUBJECT OF TEST: "CDK4/cyclin D1 (Homo sapiens (Human), UniProt P11802)"
  IC50: "≤ 200 nM"
- COMPOUND: "CCOC(=O)NS(=O)(=O)N1CCN(c2ccc(Nc3ncc4c(C)c(C(C)=O)c(=O)n(C5CCCC5)c4n3)nc2)CC1 [Compound A25]"
  SUBJECT OF TEST: "CDK4/cyclin D1 (Homo sapiens (Human), UniProt P11802)"
  IC50: "200 to 500 nM"

# get_value(readout='IC50', item= CC(=O)OCCOC(=O)NS(=O)(=O)N1CCN(c2ccc(Nc3ncc4c(C)c(C(C)=O)c(=O)n(C5CCCC5)c4n3)nc2)CC1 [Compound A9] )
≤ 200 nM

----------
# SUBJECT OF TEST: CDK6/cyclin D1 (Homo sapiens (Human))
# Sequence (Q00534 whole entry): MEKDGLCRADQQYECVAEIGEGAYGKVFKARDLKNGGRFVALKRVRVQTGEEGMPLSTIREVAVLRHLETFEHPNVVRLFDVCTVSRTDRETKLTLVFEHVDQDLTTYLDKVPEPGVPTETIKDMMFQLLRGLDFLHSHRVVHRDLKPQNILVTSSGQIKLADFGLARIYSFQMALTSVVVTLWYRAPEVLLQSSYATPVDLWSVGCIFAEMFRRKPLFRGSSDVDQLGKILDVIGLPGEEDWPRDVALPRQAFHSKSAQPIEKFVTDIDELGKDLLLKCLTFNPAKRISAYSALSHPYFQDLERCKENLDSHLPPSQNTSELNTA
# Sequence (P24385 whole entry partner): as the sequence (P24385 whole entry partner) above
# MEASUREMENT NOTES: CDK6 Caliper Mobility Shift assay
pIC50: −log10 of the molar value.
Each entry below carries its recorded pIC50.

Here's what some known entries look like.
- SMILES REPR: "CC(=O)c1c(C)c2cnc(Nc3ccc(N4CCN(S(=O)(=O)OCOC(=O)C(C)(C)C)CC4)cn3)nc2n(C2CCCC2)c1=O"
  MEASURED PARAMETER: "pIC50"
  RESULT: "≥ 6.70"
- SMILES REPR: "CC(=O)c1c(C)c2cnc(Nc3ccc(N4CCN(S(=O)(=O)NC(=O)OC5CC5)CC4)cn3)nc2n(C2CCCC2)c1=O"
  MEASURED PARAMETER: "pIC50"
  RESULT: "≥ 6.70"

Attention now turns to another entry.
# get_value(readout='pIC50', item= CC(=O)OCCOC(=O)NS(=O)(=O)N1CCN(c2ccc(Nc3ncc4c(C)c(C(C)=O)c(=O)n(C5CCCC5)c4n3)nc2)CC1 )
≥ 6.70
